Target: Human immunodeficiency virus type 1 protease (Human immunodeficiency virus 1)
Experiment: Anti-HIV-1 activity against mutant HIV-1 in MT-4 cells (mutation selected with nelfinavir)
Assay type: functional, cell-based
Conditions: MT4
Threshold 0.3 µM. ED50 below it: 1. ED50 at it or above: -1.

Some solved cases for reference:
[
  {
    "compound": "O=C(NC1c2ccccc2C[C@H]1O)[C@H](OCc1ccc(F)cc1)[C@H](O)[C@@H](O)[C@@H](OCc1ccc(F)cc1)C(=O)N[C@H]1c2ccccc2C[C@H]1O (some centres not stated)",
    "labelValue": -1
  },
  {
    "compound": "CC(C)(C)NC(=O)[C@@H]1C[C@@H]2CCCC[C@@H]2CN1C[C@@H](O)[C@H](Cc1ccccc1)NC(=O)[C@H](CC(N)=O)NC(=O)c1ccc2ccccc2n1",
    "labelValue": 1
  }
]

Now turn to the next compound.
Asked: Criterion: ED50 strictly below 0.3 µM. Is it met by O=C(NC1c2ccccc2C[C@H]1O)[C@H](OCc1cc(F)ccc1F)[C@H](O)[C@@H](O)[C@@H](OCc1cc(F)ccc1F)C(=O)N[C@H]1c2ccccc2C[C@H]1O (some centres not stated) ?
Given back: 1

====

Target: UniProt Q72874
Assay: Anti-HIV-1 activity against Wild type virus in MT-4 cells
Assay type: functional, cell-based
Details: MT4
Please respond with y when measured ED50 is strictly beneath 100 nM, and with n in all other cases.

Sample answers from the record:
[
  {
    "molecule": "CNC(=O)[C@@H](NC(=O)[C@H](OCc1ccc(F)cc1F)[C@H](O)[C@@H](O)[C@@H](OCc1ccc(F)cc1F)C(=O)N[C@H](C(=O)NC)C(C)C)C(C)C",
    "labelValue": "n"
  },
  {
    "molecule": "CC(C)(C)NC(=O)[C@@H]1C[C@@H]2CCCC[C@@H]2CN1C[C@@H](O)[C@H](Cc1ccccc1)NC(=O)[C@H](CC(N)=O)NC(=O)c1ccc2ccccc2n1",
    "labelValue": "y"
  },
  {
    "molecule": "O=C(NC1c2ccccc2C[C@H]1O)[C@H](OCc1ccc(F)c(F)c1)[C@H](O)[C@@H](O)[C@@H](OCc1ccc(F)c(F)c1)C(=O)N[C@H]1c2ccccc2C[C@H]1O (stereo partly specified)",
    "labelValue": "n"
  },
  {
    "molecule": "CNC(=O)[C@@H](NC(=O)[C@H](OCc1ccc(F)cc1)[C@H](O)[C@@H](O)[C@@H](OCc1ccc(F)cc1)C(=O)N[C@H](C(=O)NC)C(C)C)C(C)C",
    "labelValue": "n"
  },
  {
    "molecule": "CNC(=O)[C@@H](NC(=O)[C@H](OCc1ccccc1F)[C@H](O)[C@@H](O)[C@@H](OCc1ccccc1F)C(=O)N[C@H](C(=O)NC)C(C)C)C(C)C",
    "labelValue": "n"
  }
]

With those in mind, consider the next molecule.
Asked: Lab note: confirm whether the reported ED50 for this molecule is below 100 nM, equality not counting. molecule: O=C(NC1c2ccccc2C[C@H]1O)[C@H](OCc1ccccc1F)[C@H](O)[C@@H](O)[C@@H](OCc1ccccc1F)C(=O)N[C@H]1c2ccccc2C[C@H]1O (stereo partly specified)
Given back: y

====

Notes on Ki obtained with Human immunodeficiency virus type 1 protease (Human immunodeficiency virus 1).

Observe how each entry below is paired with its result.
[
  {
    "molecule": "O=C(NC1c2ccccc2C[C@H]1O)[C@H](OCc1ccc(F)c(F)c1)[C@H](O)[C@@H](O)[C@@H](OCc1ccc(F)c(F)c1)C(=O)N[C@H]1c2ccccc2C[C@H]1O (stereo partly specified)",
    "Ki": "3.9 nM"
  },
  {
    "molecule": "CNC(=O)[C@@H](NC(=O)[C@H](OCc1cccc(F)c1)[C@H](O)[C@@H](O)[C@@H](OCc1cccc(F)c1)C(=O)N[C@H](C(=O)NC)C(C)C)C(C)C",
    "Ki": "1.83 nM"
  },
  {
    "molecule": "O=C(NC1c2ccccc2C[C@H]1O)[C@H](OCc1cccc(F)c1)[C@H](O)[C@@H](O)[C@@H](OCc1cccc(F)c1)C(=O)N[C@H]1c2ccccc2C[C@H]1O (stereo partly specified)",
    "Ki": "7.13 nM"
  },
  {
    "molecule": "CNC(=O)[C@@H](NC(=O)[C@H](OCc1ccccc1)[C@H](O)[C@@H](O)[C@@H](OCc1ccccc1)C(=O)N[C@H](C(=O)NC)C(C)C)C(C)C",
    "Ki": "0.8 nM"
  },
  {
    "molecule": "CNC(=O)[C@@H](NC(=O)[C@H](OCc1ccccc1F)[C@H](O)[C@@H](O)[C@@H](OCc1ccccc1F)C(=O)N[C@H](C(=O)NC)C(C)C)C(C)C",
    "Ki": "1.92 nM"
  }
]

Attention now shifts to the item below.
Asked: Consider the molecule O=C(NC1c2ccccc2C[C@H]1O)[C@H](OCc1ccc(F)cc1)[C@H](O)[C@@H](O)[C@@H](OCc1ccc(F)cc1)C(=O)N[C@H]1c2ccccc2C[C@H]1O (stereo partly specified) and give its measured Ki.
Given back: 5.39 nM

====

A collection of compounds and their measured ED50
Molecular target: Human immunodeficiency virus type 1 protease (Human immunodeficiency virus 1)
Assay: Anti-HIV-1 activity against mutant HIV-1 in MT-4 cells (mutation selected with nelfinavir)
Type: functional, cell-based
Settings: MT4

[
  {
    "compound": "CNC(=O)[C@@H](NC(=O)[C@H](OCc1ccccc1)[C@H](O)[C@@H](O)[C@@H](OCc1ccccc1)C(=O)N[C@H](C(=O)NC)C(C)C)C(C)C",
    "ED50": "> 15 µM"
  },
  {
    "compound": "O=C(NC1c2ccccc2C[C@H]1O)[C@H](OCc1ccccc1F)[C@H](O)[C@@H](O)[C@@H](OCc1ccccc1F)C(=O)N[C@H]1c2ccccc2C[C@H]1O (stereo not given in full)",
    "ED50": "0.21 µM"
  },
  {
    "compound": "O=C(NC1c2ccccc2C[C@H]1O)[C@H](OCc1ccc(F)cc1F)[C@H](O)[C@@H](O)[C@@H](OCc1ccc(F)cc1F)C(=O)N[C@H]1c2ccccc2C[C@H]1O (stereo not given in full)",
    "ED50": "0.25 µM"
  },
  {
    "compound": "O=C(NC1c2ccccc2C[C@H]1O)[C@H](OCc1ccccc1)[C@H](O)[C@@H](O)[C@@H](OCc1ccccc1)C(=O)N[C@H]1c2ccccc2C[C@H]1O (stereo not given in full)",
    "ED50": "0.1 µM"
  }
]

# ---- query compound ----
Asked: Suppose we examine the compound `CC(C)c1nc(CN(C)C(=O)N[C@H](C(=O)N[C@@H](Cc2ccccc2)C[C@H](O)[C@H](Cc2ccccc2)NC(=O)OCc2cncs2)C(C)C)cs1` ; what ED50 value has been reported?
Given back: 0.15 µM

====

Measured ED50, listed per entry for reference.
Molecular target: UniProtKB Q72874
Assay: Anti-HIV-1 activity against Wild type virus in MT-4 cells
Assay type: functional, cell-based
Settings: MT4
# output: bare number, implied unit µM

See these solved cases before continuing.
[
  {
    "compound": "CNC(=O)[C@@H](NC(=O)[C@H](OCc1cc(F)ccc1F)[C@H](O)[C@@H](O)[C@@H](OCc1cc(F)ccc1F)C(=O)N[C@H](C(=O)NC)C(C)C)C(C)C",
    "measurementUnit": "µM",
    "ED50": 0.65
  },
  {
    "compound": "O=C(NC1c2ccccc2C[C@H]1O)[C@H](OCc1ccc(F)cc1)[C@H](O)[C@@H](O)[C@@H](OCc1ccc(F)cc1)C(=O)N[C@H]1c2ccccc2C[C@H]1O (some centres undefined)",
    "measurementUnit": "µM",
    "ED50": 0.25
  },
  {
    "compound": "CC(C)c1nc(CN(C)C(=O)N[C@H](C(=O)N[C@@H](Cc2ccccc2)C[C@H](O)[C@H](Cc2ccccc2)NC(=O)OCc2cncs2)C(C)C)cs1",
    "measurementUnit": "µM",
    "ED50": 0.06
  }
]

Now for another entry.
Asked: So what's the measured ED50 for this one? O=C(NC1c2ccccc2C[C@H]1O)[C@H](OCc1ccccc1)[C@H](O)[C@@H](O)[C@@H](OCc1ccccc1)C(=O)N[C@H]1c2ccccc2C[C@H]1O (some centres undefined)
Given back: 0.1

====

Target: Human immunodeficiency virus type 1 protease (Human immunodeficiency virus 1)
Experiment: Anti-HIV-1 activity against mutant HIV-1 in MT-4 cells (mutation selected with saquinavir)
Format: functional, cell-based
Conditions: MT4
Criterion: ED50 strictly less than 400 nM. Met: 1. Not met: 0.

Asked: # TODO verify ED50 < 400 nM strictly for this compound: `CNC(=O)[C@@H](NC(=O)[C@H](OCc1ccc(F)cc1F)[C@H](O)[C@@H](O)[C@@H](OCc1ccc(F)cc1F)C(=O)N[C@H](C(=O)NC)C(C)C)C(C)C`
Given back: 0
